Test system: F9
ASSAY TEXT: Ability to displace [3H]all-trans-retinoic acid from F9 embryonal carcinoma cells, was assessed in a F9 laminin release assay
Assay type: functional
REPORTED CONDITIONS: Mus musculus, F9, 96 h; read-out: ED50 (the source's name)
pEC50: −log10 of the molar value.
Below, each of the molecules is paired with its reported pEC50 value.

- MOL SMILES: "CC1=C(/C=C/C(C)=C/C=C/C(C)=C/C(=O)O)C(C)(C)CCC1"
  OP: "="
  pEC50: 8.82
- MOL SMILES: "C/C(=C(/C)c1ccc2c(c1)C(C)(C)CCC2(C)C)c1ccc(C(=O)O)cc1"
  OP: "<"
  pEC50: 7.00
- MOL SMILES: "Cc1c(-c2ccc3c(c2)C(C)(C)CCC3(C)C)ccc2cc(C(=O)O)ccc12"
  OP: "<"
  pEC50: 5.30
- MOL SMILES: "CC1(C)CCC(C)(C)c2cc3cc(-c4ccc(C(=O)O)cc4)ccc3cc21"
  OP: "="
  pEC50: 9.70
- MOL SMILES: "CC1(C)CCC(C)(C)c2cc(-c3ccc4cc(C(=O)O)ccc4c3)ccc21"
  OP: "="
  pEC50: 7.51

----------
Listing of recorded log10 ID50 by entry.
TEST TARGET: Ornithine decarboxylase (Mus musculus)
ASSAY TEXT: Inhibitory effect of compound on the induction of ornithine decarboxylase in CD-1 mouse.
METRIC: log10 ID50 (log10 of the value in nM)

- MOL SMILES: "CC1(C)CCC(C)(C)c2cc(-c3ccc4cc(C(=O)O)ccc4c3)ccc21"
  TEST TARGET: "Ornithine decarboxylase (Mus musculus)"
  log10 ID50: 0.34
- MOL SMILES: "C/C(=C(/C)c1ccc2c(c1)C(C)(C)CCC2(C)C)c1ccc(C(=O)O)cc1"
  TEST TARGET: "Ornithine decarboxylase (Mus musculus)"
  log10 ID50: 2.15
- MOL SMILES: "Cc1c(-c2ccc3c(c2)C(C)(C)CCC3(C)C)ccc2cc(C(=O)O)ccc12"
  TEST TARGET: "Ornithine decarboxylase (Mus musculus)"
  log10 ID50: 1.82
- MOL SMILES: "Cc1cc2c(cc1-c1ccc3cc(C(=O)O)ccc3c1)C(C)(C)CCC2(C)C"
  TEST TARGET: "Ornithine decarboxylase (Mus musculus)"
  log10 ID50: -0.40
- MOL SMILES: "CC1(C)CCC(C)(C)c2cc3cc(-c4ccc(C(=O)O)cc4)ccc3cc21"
  TEST TARGET: "Ornithine decarboxylase (Mus musculus)"
  log10 ID50: -1.15

----------
Species on record: Oryctolagus cuniculus
ASSAY TEXT: Percentage inhibition of cholesterol-3-sulfate activity in rabbit at 0.1 nM.
Type: functional
METRIC: Cholesterol sulfate synthesis (% of control)

- COMPOUND: "CC1(C)CCC(C)(C)c2cc(-c3ccc4cc(C(=O)O)ccc4c3)ccc21"
  RESULT: "15%"
- COMPOUND: "C/C(=C\\c1ccc(C(=O)O)cc1)c1ccc2c(c1)C(C)(C)CCC2(C)C"
  RESULT: "6%"
- COMPOUND: "C/C(=C(/C)c1ccc2c(c1)C(C)(C)CCC2(C)C)c1ccc(C(=O)O)cc1"
  RESULT: "73%"
- COMPOUND: "Cc1c(-c2ccc3c(c2)C(C)(C)CCC3(C)C)ccc2cc(C(=O)O)ccc12"
  RESULT: "187%"
- COMPOUND: "CC1=C(/C=C/C(C)=C/C=C/C(C)=C/C(=O)O)C(C)(C)CCC1"
  RESULT: "100%"
- COMPOUND: "Cc1cc2c(cc1-c1ccc3cc(C(=O)O)ccc3c1)C(C)(C)CCC2(C)C"
  RESULT: "12%"
- COMPOUND: "CC1(C)CCC(C)(C)c2cc(C3C[C@H]3c3ccc(C(=O)O)cc3)ccc21 (some centres undefined)"
  RESULT: "73%"
- COMPOUND: "C/C(=C\\c1ccc2c(c1)C(C)(C)CCC2(C)C)c1ccc(C(=O)O)cc1"
  RESULT: "2%"
- COMPOUND: "CC1(C)CCC(C)(C)c2cc3cc(-c4ccc(C(=O)O)cc4)ccc3cc21"
  RESULT: "13%"

----------
TEST TARGET: Cellular retinoic acid-binding protein 1 (Gallus gallus)
ASSAY TEXT: Concentration of compound required to inhibit binding of 2.5 uM [3H]all-trans-retinoic acid by 50% in chick
Reported ID50 values for the following molecules.
METRIC: ID50 (µM)

- MOLECULE: "C/C(=C\\c1ccc2c(c1)C(C)(C)CCC2(C)C)c1ccc(C(=O)O)cc1"
  METRIC: "ID50"
  QUANTITATIVE RESULT: 1
- MOLECULE: "CC1(C)CCC(C)(C)c2cc(C3C[C@H]3c3ccc(C(=O)O)cc3)ccc21 (stereo partly drawn)"
  METRIC: "ID50"
  QUANTITATIVE RESULT: 4.8
- MOLECULE: "CC1(C)CCC(C)(C)c2cc(-c3ccc4cc(C(=O)O)ccc4c3)ccc21"
  METRIC: "ID50"
  QUANTITATIVE RESULT: 1.6

----------
Some compounds, each annotated with its measured EC50.
Test system: F9
ASSAY TEXT: Ability to displace 3 uM retinoid and [3H]all-trans-retinoic acid in F9 embryonal carcinoma cells using F9 Plasminogen Activator releasing assay
Type: functional
REPORTED CONDITIONS: Mus musculus, F9, 4 days; read-out: ED50 (the source's name)

- COMPOUND: "CC1(C)CCC(C)(C)c2cc3cc(-c4ccc(C(=O)O)cc4)ccc3cc21"
  TEST TARGET: "F9"
  OP: "="
  EC50 / nM: 0.3
- COMPOUND: "CC1(C)CCC(C)(C)c2cc(C3C[C@H]3c3ccc(C(=O)O)cc3)ccc21 (some centres undefined)"
  TEST TARGET: "F9"
  OP: "="
  EC50 / nM: 2
- COMPOUND: "Cc1c(-c2ccc3c(c2)C(C)(C)CCC3(C)C)ccc2cc(C(=O)O)ccc12"
  TEST TARGET: "F9"
  OP: "="
  EC50 / nM: 3
- COMPOUND: "C/C(=C(/C)c1ccc2c(c1)C(C)(C)CCC2(C)C)c1ccc(C(=O)O)cc1"
  TEST TARGET: "F9"
  OP: ">"
  EC50 / nM: 10
- COMPOUND: "C/C(=C\\c1ccc2c(c1)C(C)(C)CCC2(C)C)c1ccc(C(=O)O)cc1"
  TEST TARGET: "F9"
  OP: "="
  EC50 / nM: 0.7
- COMPOUND: "CC1(C)CCC(C)(C)c2cc(-c3ccc4cc(C(=O)O)ccc4c3)ccc21"
  TEST TARGET: "F9"
  OP: "="
  EC50 / nM: 1
- COMPOUND: "Cc1cc2c(cc1-c1ccc3cc(C(=O)O)ccc3c1)C(C)(C)CCC2(C)C"
  TEST TARGET: "F9"
  OP: "="
  EC50 / nM: 0.5
- COMPOUND: "CC1=C(/C=C/C(C)=C/C=C/C(C)=C/C(=O)O)C(C)(C)CCC1"
  TEST TARGET: "F9"
  OP: "="
  EC50 / nM: 0.1
- COMPOUND: "C/C(=C\\c1ccc(C(=O)O)cc1)c1ccc2c(c1)C(C)(C)CCC2(C)C"
  TEST TARGET: "F9"
  OP: "="
  EC50 / nM: 0.08

----------
Species on record: Oryctolagus cuniculus
ASSAY TEXT: cross-linked envelope inhibition assay was performed at 10 nM compound concentration
Type: functional
Set-up: scale not given: the % may be the effect or the level left

- MOLECULE: "C/C(=C(/C)c1ccc2c(c1)C(C)(C)CCC2(C)C)c1ccc(C(=O)O)cc1"
  Control: "100%"
- MOLECULE: "Cc1c(-c2ccc3c(c2)C(C)(C)CCC3(C)C)ccc2cc(C(=O)O)ccc12"
  Control: "5%"
- MOLECULE: "C/C(=C\\c1ccc(C(=O)O)cc1)c1ccc2c(c1)C(C)(C)CCC2(C)C"
  Control: "<1%"
- MOLECULE: "C/C(=C\\c1ccc2c(c1)C(C)(C)CCC2(C)C)c1ccc(C(=O)O)cc1"
  Control: "0%"
- MOLECULE: "CC1=C(/C=C/C(C)=C/C=C/C(C)=C/C(=O)O)C(C)(C)CCC1 [TRETINOIN]"
  Control: "<1%"
- MOLECULE: "Cc1cc2c(cc1-c1ccc3cc(C(=O)O)ccc3c1)C(C)(C)CCC2(C)C"
  Control: "<1%"
- MOLECULE: "CC1(C)CCC(C)(C)c2cc(-c3ccc4cc(C(=O)O)ccc4c3)ccc21"
  Control: "<1%"
- MOLECULE: "CC1(C)CCC(C)(C)c2cc(C3C[C@H]3c3ccc(C(=O)O)cc3)ccc21 (some centres undefined)"
  Control: "<1%"
- MOLECULE: "CC1(C)CCC(C)(C)c2cc3cc(-c4ccc(C(=O)O)cc4)ccc3cc21"
  Control: "<1%"

Data credit: ChEMBL document CHEMBL1124521
